Parameter: growth. Scope: all listed entries.
# Tested on: OVCAR-8 ovarian
# EXPERIMENTAL_DETAILS: NCI-60 one-dose screen, 48 h (100 = growth as untreated, 0 = no growth, -100 = all killed)
# RUN_CONDITIONS: 10 µM unless noted
The panel holds about 83,000 compounds, 20% with a hit somewhere; the sample as a whole holds those more often. The source made the active and inactive calls. Rule for the calls: active = growth percent below 10; inactive = the rest.

Examples with answers:
COMPOUND	growth
CCC(C)(C)O	108% (inactive)
O=C(NCCNC(=O)c1ccc([As](O)O)cc1)c1ccc([As](O)O)cc1	103% (inactive)

Pending compound:
Exercise: Give reported growth value for O=C(O)C1[O][Sb][O]C1C(=O)O (stereo unspecified)
Key: 101% (inactive)

----------
# Tested on: HL-60(TB) leukemia
# EXPERIMENTAL_DETAILS: NCI-60 one-dose screen, 48 h
# RUN_CONDITIONS: 10 µM unless noted
Compounds without any hit were thinned out: in the full panel of roughly 83,000, 20% have a hit. Calls of active or inactive are those of the source. Rule for the calls: active = growth percent below 10; inactive = the rest.
Give your call using only these classes: active, inactive

Completed entries (count: 6):
MOLECULE	TEST_SYSTEM	DISCRETE_LABEL
Nc1ccc(Oc2c(F)c(F)c(Oc3ccc(N)cc3)c(F)c2F)cc1	HL-60(TB) leukemia	inactive
CC1=C(C(=O)/C=C/c2c[nH]c3ccccc23)C(c2ccccc2)NC(=S)N1 (stereo not given)	HL-60(TB) leukemia	inactive
CC[C@@](C)(NC(=O)[C@H](C)NC(=O)CCNC(=O)C(C)(C)NC(=O)[C@H](C)NC(=O)[C@@H]1CCCN1C(=O)[C@@](C)(CC)NC(=O)[C@H](Cc1ccccc1)NC(=O)C1CCCN1C(=O)C(C)(C)NC(=O)C1CCCN1C(=O)C(C)(C)NC(C)=O)C(=O)NCCC(=O)N[C@@H](CC(C)C)C(=O)NC(C)(C)C(=O)NCCC(=O)N[C@@H](CC(C)C)C(=O)NC(C)(C)C(=O)NC(C)(C)C(=O)N[C@@H](CC(C)C)C(=O)NCCC(=O)NCO (stereo not given in full)	HL-60(TB) leukemia	active
Cc1cc(N/N=C/c2ccccn2)nc2ccccc12	HL-60(TB) leukemia	active
C/C(=C\c1cc(C(F)(F)F)n(-c2ccc(N)cc2)n1)[C@@H]1C[C@@H]2O[C@]2(C)CCC[C@H](C)[C@H](O)[C@@H](C)C(=O)C(C)(C)[C@@H](O)CC(=O)O1	HL-60(TB) leukemia	active
O=C(O)COc1ccc(Cl)cc1C1CCCCC1	HL-60(TB) leukemia	inactive

Exercise: Per the assay record, what outcome was assigned to Cc1c(Cl)cccc1NCN1C(=O)c2ccccc2C1=O ?
Key: inactive

Exercise: What was the test verdict on CCCCOC(=O)c1ccccc1C(=O)O.CCCCOC(=O)c1ccccc1C(=O)O.[Cu+2] ?
Key: inactive

Exercise: What is the recorded call for this molecule in the test? COc1ccc(Cn2c(Br)c3c(c2-c2cc(OC)c(OC)c(OC)c2)CCc2sc(NC(=O)c4ccc(OC)cc4)nc2-3)cc1
Key: inactive

Exercise: Please let me know the test result on file for CN1CC=C(c2cc(NC(=O)Nc3ccc(Oc4ccnc(NC(=O)C5CC5)c4)c(F)c3)cc(C(F)(F)F)c2)CC1 .
Key: active

Exercise: Dear all, I need the recorded test outcome for Oc1c(C(Nc2ccccc2)c2ccccc2)ccc2cccnc12 (stereo not given) , thank you.
Key: inactive

Exercise: Entry CC(=O)OC1CCC2(C)C(=CC3C4CCC(=O)C4(C)CCC32)C1 (stereo not given) : call = ?
Key: inactive

----------
# Tested on: SF-295 CNS
# EXPERIMENTAL_DETAILS: NCI-60 one-dose screen, 48 h
# RUN_CONDITIONS: 10 µM unless noted
This is part of a sample that, as a whole, favours compounds with a hit. Of some 83,000 tested, about 20% had one in any assay. Active and inactive are the calls of the source. Rule for the calls: active = growth percent below 10; inactive = the rest.
Could you please pick one outcome from this set? true (1) (active), false (0) (inactive)

Study these solved cases before continuing.
MOLECULE	DISCRETE_LABEL
C1CNC2CCCC2C1 (stereo not drawn)	false (0)
NC(=O)C(Cl)Cl	false (0)
CC(=O)OC1CCC2(C)C(=CCC3C4CC(CN5CC5)C(=O)C4(C)CCC32)C1 (stereo not drawn)	false (0)
C=CCc1ccc(OC(=O)Cc2ccccc2)c(OC)c1	false (0)
CC1COC(=O)C1 (stereo not drawn)	false (0)
C[C@]12CC[C@H]3[C@@H](C[C@@H]4N=C(c5ccc(O)cc5)S[C@@]45C[C@H](O)CC[C@]35C)[C@@H]1CC[C@@H]2O	true (1)
CC12CCC(=O)C=C1CCC1C2CCC2(C)C(C(=O)COC(=O)Cc3ccc(N(CCCl)CCCl)cc3)CCC12 (stereo not drawn)	false (0)
c1ccc(CCN2CCCCC2Cc2ccccc2)cc1 (stereo not drawn)	false (0)

Next item in the queue.
Exercise: Could you please tell me the result logged for CC(/C=N/N=C(N)N)=N/N=C(N)N in this assay?
Key: false (0)

----------
# System: HL-60(TB) leukemia
# EXPERIMENTAL_DETAILS: NCI-60 one-dose screen, 48 h (100 = growth as untreated, 0 = no growth, -100 = all killed)
# RUN_CONDITIONS: 10 µM unless noted
About 83,000 compounds went through this panel and 20% of them were active in at least one assay; those are over-represented in the sample as a whole.
MEASUREMENT_NAME: growth (%)
Report the value in % with no unit label.

Solved entries (count: 6):
MOLECULE	REPORTED_RESULT
CCN1CCN(c2ccc(NC(=O)Nc3nc4ccc(-c5ccccc5OC)cc4s3)cc2)CC1	-74.1
CC(=O)O[C@H]1CCC2(C)C(=CCC3C2CCC2(C)/C(=N/OC(=O)c4ccc(N(CCCl)CCCl)cc4)CCC32)C1 (some centres undefined)	17.5
COc1c(N2CC3CCCN(C(C)=O)C3C2)c(F)cc2c(=O)c(C(=O)N[C@H]3C(O)[C@@H](O)C(CO)O[C@H]3O)cn(C3CC3)c12 (some centres undefined)	103
Cc1cccc(NC(=O)c2sc3nc4c(cc3c2N)CCCC4)c1	22.1
CCn1cc(CNc2ccc(C(=O)Nc3ccc4ccccc4c3)cc2)c(C)n1	79.8
CC(C)(C)C(=O)OCOP(=O)(OCOC(=O)C(C)(C)C)C1CCCN(OC(=O)c2ccccc2)C1=O (centres undefined)	35.1

Exercise: For HL-60(TB) leukemia, give growth of the listed molecule: CCOC(=O)c1cc(C(=O)c2ccc(Br)cc2)n2cc(C)cc(C)c12
Key: 103

Exercise: Report value only: growth, HL-60(TB) leukemia, CCN(CC)c1ccc2cc(C(Nc3ccc(Cl)cc3)c3nnnn3C(C)(C)C)c(=O)oc2c1 (centres undefined)
Key: 96

Exercise: Find growth for Cc1scc2c1N(C(=O)CN1CCN(C)CC1)c1ccccc1NC2=O on HL-60(TB) leukemia and write it down.
Key: 121

----------
# Test system: HL-60(TB) leukemia
# EXPERIMENTAL_DETAILS: NCI-60 one-dose screen, 48 h
# RUN_CONDITIONS: 10 µM unless noted
About 83,000 compounds went through this panel and 20% of them were active in at least one assay; those are over-represented in the sample as a whole. Calls of active or inactive are those of the source. Rule for the calls: active = growth percent below 10; inactive = the rest.
Bench note: report the call from active, inactive

MOLECULE	DISCRETE_LABEL
O=C(/C(=C/c1cccc([N+](=O)[O-])c1)c1ccccc1)c1ccccc1	inactive

Now turn to the next molecule.
Exercise: Returns: the outcome recorded for CCOC(=O)c1c(C)nc(C)c(C(=O)OCC)c1-c1cccnc1 in this assay.
Key: inactive

----------
Listed here: items and their measured growth.
# Test system: M14 melanoma
# EXPERIMENTAL_DETAILS: NCI-60 one-dose screen, 48 h (100 = growth as untreated, 0 = no growth, -100 = all killed)
# RUN_CONDITIONS: 10 µM unless noted
About 83,000 compounds went through this panel and 20% of them were active in at least one assay; those are over-represented in the sample as a whole.
Provide only the numeric value, understood in %.

Solved cases below.
COMPOUND	REPORTED_RESULT
CC(CC(C#N)(c1ccccc1)c1ccccc1)N1CCOCC1 (stereo not given)	114
OC1(c2ccccc2F)c2ccccc2C2=NCCN21 (stereo not given)	107
CN=C(NN)NN	105
Cc1ccc(C[As+](c2ccccc2)(c2ccccc2)c2ccccc2)cc1	4.54
CNc1ccc(C(=O)CC(O)CCC(C)C2OC(=O)CC(O)CC(=O)CC(O)CC(O)CC(O)CC(O)CC3(O)CC(O)C(C(=O)OC)C(CC(O[C@@H]4O[C@H](C)[C@@H](O)[C@H](N)[C@@H]4O)/C=C/C=C/C=C/C=C/C=C/C=C/C=C/C2C)O3)cc1 (stereo not given in full)	-47.5

Now turn to the next compound.
Exercise: Dear colleague, please send me the reported growth for Cn1cnnc1[S-].[Au+].c1ccc([PH+](c2ccccc2)c2ccccc2)cc1 when you can.
Key: -11.9
